test-target: Elastase from human neutrophils (Homo sapiens)
Sequence (P08246 30-267): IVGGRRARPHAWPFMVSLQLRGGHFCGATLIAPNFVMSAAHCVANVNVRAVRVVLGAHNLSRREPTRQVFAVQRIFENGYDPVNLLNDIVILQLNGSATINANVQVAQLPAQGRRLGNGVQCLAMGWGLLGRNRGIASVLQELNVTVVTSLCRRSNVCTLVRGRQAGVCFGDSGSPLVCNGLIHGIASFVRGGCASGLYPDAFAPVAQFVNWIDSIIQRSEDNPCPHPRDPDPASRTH
protocol-text: Enzymatic assay, elastase
condition-parameters: Elastase IC50
Where a SMILES comes first, the peptide text is derived from it.
quantity-kind: pIC50
Numbers only, as −log10 of the molar value.

// each molecule listed below needs its pIC50
1. CCCCCC[C@@H]1NC(=O)[C@@H]2CCCN2C(=O)[C@H]2CCCN2C(=O)[C@H](Cc2ccc(O)cc2)NC(=O)[C@@H]2CSSC[C@H](NC1=O)C(=O)N[C@@H]([C@@H](C)O)C(=O)N[C@@H](C)C(=O)N[C@@H](CO)C(=O)N[C@@H]([C@@H](C)CC)C(=O)N1CCC[C@H]1C(=O)N1CCC[C@H]1C(=O)N[C@@H](CCC(N)=O)C(=O)N2 [Ex. 99] (HELM PEPTIDE1{[CCCCCC[C@H](N[*:1])C(=O)[*:2]].C.T.A.S.I.P.P.Q.C.Y.[dP].P}$PEPTIDE1,PEPTIDE1,2:R3-10:R3|PEPTIDE1,PEPTIDE1,1:R1-13:R2$$$V2.0)
2. CCCC[C@@H]1NC(=O)[C@@H]2CCCN2C(=O)[C@H]2CCCN2C(=O)[C@H](Cc2ccc(O)cc2)NC(=O)[C@@H]2CSSC[C@H](NC1=O)C(=O)N[C@@H]([C@@H](C)O)C(=O)N[C@@H](C)C(=O)N[C@@H](CO)C(=O)N[C@@H]([C@@H](C)CC)C(=O)N1CCC[C@H]1C(=O)N1CC(NC(=O)c3ccccc3)C[C@H]1C(=O)N[C@@H](CCC(N)=O)C(=O)N2 (single isomer, unassigned) [Ex. 88]

Found:
7.80
7.74

Origin of the recorded values: patent US8658604B2
